# Test system: sigma receptor
# Assay remarks: Sigma receptor binding assay, [^3 H]DTG, guinea pig brain membrane homogenates
# Details: guinea pig brain membranes; drug specificity profile
Readout label: Binding to / selectivity at [^3 H]DTG-labelled sigma sites

> print(dat)
                                        mol  subject.of.test          value
1     CN1CCc2cccc3c2[C@H]1Cc1ccc(O)c(O)c1-3   sigma receptor  insensitivity
2  C=CCN1CC[C@]23c4c5ccc(O)c4O[C@H]2C(=O)CC[C@@]3(O)[C@H]1C5   sigma receptor  insensitivity
3                         NCCc1ccc(O)c(O)c1   sigma receptor  insensitivity
